assay: AUC (total) in rat at 3 mg/kg, po; type: ADME, organism-based; conditions: in vivo
Answer each item with its documented AUC.
One number for each entry, in µM·h.

For each entry beneath this line, provide reported AUC.
1. CS(=O)(=O)Nc1ccccc1-c1ccc(N2CCC[C@@H](NC(=O)Nc3ccc(Cl)cc3F)C2=O)cc1
2. COc1cnc(NC(=O)N[C@@H]2CCCN(c3ccc(-c4ccccc4NS(C)(=O)=O)cc3)C2=O)c(F)c1
3. CS(=O)(=O)Nc1ccccc1-c1ccc(N2CCC[C@@H](NC(=O)Nc3ccc(C(F)(F)F)cc3)C2=O)cc1
4. CS(=O)(=O)Nc1ccccc1-c1ccc(N2CCC[C@@H](NC(=O)Nc3ccc(Cl)cc3)C2=O)cc1

Data returned:
1. 2.7
2. 1.7
3. 0.45
4. 1.13

====

test: Protein binding in rat plasma assessed as free fraction; format: ADME, cell-free
Answer each item with its documented fraction unbound.
Numbers only.

Some compounds with known fraction unbound results, for comparison:
> print(dat)
                           smiles.structure  experimental.result
1  CS(=O)(=O)Nc1ccccc1-c1ccc(N2CCC[C@@H](NC(=O)Nc3ccc(Cl)cc3F)C2=O)cc1                 0.03
2  COc1cnc(NC(=O)N[C@@H]2CCCN(c3ccc(-c4ccccc4NS(C)(=O)=O)cc3)C2=O)c(F)c1                 0.08
3  CS(=O)(=O)Nc1ccccc1-c1ccc(N2CCC[C@@H](NC(=O)Nc3ccc(Cl)cc3)C2=O)cc1                 0.01

Moving on to the next compound.
For this compound ( CS(=O)(=O)Nc1ccccc1-c1ccc(N2CCC[C@@H](NC(=O)Nc3ccc(C(F)(F)F)cc3)C2=O)cc1 ), measured fraction unbound is 0.01

====

Kindly supply the reported INH values for the records listed here.
target: Cytochrome P450 2C19 (Homo sapiens, UniProt P33261); assay: Inhibition of CYP2C19 (unknown origin); assay type: ADME
Sequence (P33261 whole entry): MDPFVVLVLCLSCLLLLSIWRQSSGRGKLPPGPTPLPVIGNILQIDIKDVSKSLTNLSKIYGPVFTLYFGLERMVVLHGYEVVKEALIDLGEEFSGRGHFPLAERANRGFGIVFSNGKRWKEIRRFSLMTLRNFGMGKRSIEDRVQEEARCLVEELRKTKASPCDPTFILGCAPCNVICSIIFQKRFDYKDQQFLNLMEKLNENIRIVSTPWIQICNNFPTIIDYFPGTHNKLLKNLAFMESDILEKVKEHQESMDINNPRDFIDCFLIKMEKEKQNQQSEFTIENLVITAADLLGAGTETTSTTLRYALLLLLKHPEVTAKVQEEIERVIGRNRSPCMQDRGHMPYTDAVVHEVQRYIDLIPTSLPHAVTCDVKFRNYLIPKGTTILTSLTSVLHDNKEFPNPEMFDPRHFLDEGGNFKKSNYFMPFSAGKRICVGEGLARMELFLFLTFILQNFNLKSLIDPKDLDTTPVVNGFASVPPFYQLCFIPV

Consider the worked cases shown below.
> print(dat)
                           smiles.structure                               test.system  experimental.result
1  CS(=O)(=O)Nc1ccccc1-c1ccc(N2CCC[C@@H](NC(=O)Nc3ccc(C(F)(F)F)cc3)C2=O)cc1  Cytochrome P450 2C19 (Homo sapiens, UniProt P33261)              > 10 µM
2  COc1cnc(NC(=O)N[C@@H]2CCCN(c3ccc(-c4ccccc4NS(C)(=O)=O)cc3)C2=O)c(F)c1  Cytochrome P450 2C19 (Homo sapiens, UniProt P33261)              > 10 µM
3  CS(=O)(=O)Nc1ccccc1-c1ccc(N2CCC[C@@H](NC(=O)Nc3ccc(Cl)cc3)C2=O)cc1  Cytochrome P450 2C19 (Homo sapiens, UniProt P33261)              > 10 µM

Next:
The compound listed as CS(=O)(=O)Nc1ccccc1-c1ccc(N2CCC[C@@H](NC(=O)Nc3ccc(Cl)cc3F)C2=O)cc1 has a reported INH of > 10 µM

====

biological target: Cytochrome P450 1A2 (Homo sapiens); experiment: Inhibition of CYP1A2 (unknown origin); format: ADME
Sequence (P05177 whole entry): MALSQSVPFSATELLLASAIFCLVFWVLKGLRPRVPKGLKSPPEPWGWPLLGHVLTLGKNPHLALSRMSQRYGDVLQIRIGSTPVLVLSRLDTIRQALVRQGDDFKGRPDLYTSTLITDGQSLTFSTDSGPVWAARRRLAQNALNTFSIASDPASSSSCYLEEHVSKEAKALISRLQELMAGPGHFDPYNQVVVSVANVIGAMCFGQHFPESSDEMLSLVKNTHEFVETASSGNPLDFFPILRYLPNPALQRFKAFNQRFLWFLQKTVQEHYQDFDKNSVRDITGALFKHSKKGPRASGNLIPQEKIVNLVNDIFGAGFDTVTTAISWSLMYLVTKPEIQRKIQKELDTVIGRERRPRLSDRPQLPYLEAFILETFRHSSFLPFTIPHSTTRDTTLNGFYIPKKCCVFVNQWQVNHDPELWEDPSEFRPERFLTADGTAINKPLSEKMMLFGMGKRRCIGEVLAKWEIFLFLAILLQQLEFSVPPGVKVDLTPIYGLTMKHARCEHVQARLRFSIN
observable: INH

Solved cases (3 shown):
> print(dat)
                           smiles.structure  observable  experimental.result
1  CS(=O)(=O)Nc1ccccc1-c1ccc(N2CCC[C@@H](NC(=O)Nc3ccc(Cl)cc3F)C2=O)cc1         INH              > 10 µM
2  CS(=O)(=O)Nc1ccccc1-c1ccc(N2CCC[C@@H](NC(=O)Nc3ccc(C(F)(F)F)cc3)C2=O)cc1         INH              > 10 µM
3  CS(=O)(=O)Nc1ccccc1-c1ccc(N2CCC[C@@H](NC(=O)Nc3ccc(Cl)cc3)C2=O)cc1         INH              > 10 µM

# context switch: different compound, same INH
Entry COc1cnc(NC(=O)N[C@@H]2CCCN(c3ccc(-c4ccccc4NS(C)(=O)=O)cc3)C2=O)c(F)c1 , INH reported as > 10 µM

====

assay: Drug concentration in plasma of LPS-treated rat model at 10 mg/kg measured after 2 hrs; assay type: ADME, organism-based
Assignment: determine reported concentration at 2 h for the given compounds.
One number for each entry, in nM.

Worked examples, 2 compounds total:
> print(dat)
                           smiles.structure  experimental.result
1  CS(=O)(=O)Nc1ccccc1-c1ccc(N2CCC[C@@H](NC(=O)Nc3ccc(Cl)cc3F)C2=O)cc1                 1700
2  CS(=O)(=O)Nc1ccccc1-c1ccc(N2CCC[C@@H](NC(=O)Nc3ccc(C(F)(F)F)cc3)C2=O)cc1                  610

Then this compound:
// concentration at 2 h lookup, compound = CS(=O)(=O)Nc1ccccc1-c1ccc(N2CCC[C@@H](NC(=O)Nc3ccc(Cl)cc3)C2=O)cc1 , result: 490

====

experiment: Protein binding in human plasma assessed as free fraction; type: ADME, cell-free
observable: fraction unbound

> print(dat)
                           smiles.structure  experimental.result
1  COc1cnc(NC(=O)N[C@@H]2CCCN(c3ccc(-c4ccccc4NS(C)(=O)=O)cc3)C2=O)c(F)c1                 0.12

Would you mind listing fraction unbound for each of the following compounds?
1. CS(=O)(=O)Nc1ccccc1-c1ccc(N2CCC[C@@H](NC(=O)Nc3ccc(C(F)(F)F)cc3)C2=O)cc1
2. CS(=O)(=O)Nc1ccccc1-c1ccc(N2CCC[C@@H](NC(=O)Nc3ccc(Cl)cc3F)C2=O)cc1
3. CS(=O)(=O)Nc1ccccc1-c1ccc(N2CCC[C@@H](NC(=O)Nc3ccc(Cl)cc3)C2=O)cc1

Data returned:
0.01
0.03
0.02

====

assay: Cmax in rat at 3 mg/kg, po; assay type: ADME, organism-based; details: in vivo
observable: Cmax (nM)
One number for each entry, in nM.

> print(dat)
                           smiles.structure  experimental.result
1  CS(=O)(=O)Nc1ccccc1-c1ccc(N2CCC[C@@H](NC(=O)Nc3ccc(Cl)cc3F)C2=O)cc1                  610
2  CS(=O)(=O)Nc1ccccc1-c1ccc(N2CCC[C@@H](NC(=O)Nc3ccc(Cl)cc3)C2=O)cc1                  300
3  CS(=O)(=O)Nc1ccccc1-c1ccc(N2CCC[C@@H](NC(=O)Nc3ccc(C(F)(F)F)cc3)C2=O)cc1                  110

Form: molecule = COc1cnc(NC(=O)N[C@@H]2CCCN(c3ccc(-c4ccccc4NS(C)(=O)=O)cc3)C2=O)c(F)c1 ; Cmax = 830

====

assay: Permeability across apical to basal side in human Caco-2 cells; format: ADME, cell-based; details: read-out: permeability
Please go through the items and note down their Papp A→B.
Numbers only, in ×10⁻⁶ cm/s.

> print(dat)
                           smiles.structure  experimental.result
1  COc1cnc(NC(=O)N[C@@H]2CCCN(c3ccc(-c4ccccc4NS(C)(=O)=O)cc3)C2=O)c(F)c1                   11

Consider now this further compound.
// field: Papp A→B; key: CS(=O)(=O)Nc1ccccc1-c1ccc(N2CCC[C@@H](NC(=O)Nc3ccc(Cl)cc3F)C2=O)cc1 ; value = 4.4

====

Molecular target: N-formyl peptide receptor 2 (Homo sapiens, UniProt P25090)
Sequence (P25090 whole entry): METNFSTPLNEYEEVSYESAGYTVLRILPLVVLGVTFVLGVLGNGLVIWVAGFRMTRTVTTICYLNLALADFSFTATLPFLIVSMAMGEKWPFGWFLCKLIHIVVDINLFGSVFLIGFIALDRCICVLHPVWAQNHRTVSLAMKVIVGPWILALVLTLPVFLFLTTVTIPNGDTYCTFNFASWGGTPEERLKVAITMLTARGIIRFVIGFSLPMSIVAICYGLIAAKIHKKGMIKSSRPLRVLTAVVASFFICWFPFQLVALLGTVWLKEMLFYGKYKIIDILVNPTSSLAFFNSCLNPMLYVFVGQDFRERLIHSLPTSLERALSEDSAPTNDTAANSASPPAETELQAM
Assay: Agonist activity at human FPR2 expressed in CHO cells assessed as forskolin -induced cAMP level incubated for 30 mins in presence of IBMX by HTRF HiRange cAMP assay
EC50 vs 0.6 nM: less than gives Met; not less than gives Not met.

Some solved cases for reference:
> print(dat)
                                   molecule                               test.system  discrete.label
1  CS(=N)(=O)c1ccccc1-c1ccc(N2CCC[C@@H](NC(=O)Nc3ccc(C(F)(F)F)cc3)C2=O)cc1 (stereo in doubt; 9)  N-formyl peptide receptor 2 (Homo sapiens, UniProt P25090)         Not met
2  CS(=O)(=O)Nc1ccccc1-c1ccc(N2CCC[C@@H](NC(=O)Nc3ccc(Cl)cc3F)C2=O)cc1  N-formyl peptide receptor 2 (Homo sapiens, UniProt P25090)             Met
3  CS(=O)(=O)Nc1ccccc1-c1ccc(N2CCC[C@@H](NC(=O)Nc3ccc(C(F)(F)F)cn3)C2=O)cc1  N-formyl peptide receptor 2 (Homo sapiens, UniProt P25090)         Not met
4  COc1ccc(NC(=O)N[C@@H]2CCCN(c3ccc(-c4ccccc4NS(C)(=O)=O)cc3)C2=O)cc1  N-formyl peptide receptor 2 (Homo sapiens, UniProt P25090)             Met
5  CS(=O)(=O)Nc1ccccc1-c1ccc(N2CCC[C@@H](NC(=O)Nc3ccc(Cl)cc3)C2=O)cc1  N-formyl peptide receptor 2 (Homo sapiens, UniProt P25090)             Met

Data request: Input CS(=O)(=O)Nc1ccccc1-c1ccc(N2CCC[C@@H](NC(=O)Nc3ccc(C(F)(F)F)cc3)C2=O)cc1 ; condition: EC50 strictly below 0.6 nM. Does it hold?
Data returned: Met

Data request: For CS(=O)(=O)Nc1ccccc1-c1ccc(N2CCC[C@@H](NC(=O)Nc3ccc(C(F)(F)F)nc3)C2=O)cc1 , is the recorded EC50 below the cut-off of 0.6 nM?
Data returned: Not met

Data request: Hi there! Is EC50 for CS(=N)(=O)c1ccccc1-c1ccc(N2CCC[C@@H](NC(=O)Nc3ccc(C(F)(F)F)cc3)C2=O)cc1 (stereo in doubt; 10) below 0.6 nM, do you know?
Data returned: Not met

Data request: Answer whether the molecule NC(=O)c1ccccc1-c1ccc(N2CCC[C@@H](NC(=O)Nc3ccc(C(F)(F)F)cc3)C2=O)cc1 has EC50 strictly less than 0.6 nM
Data returned: Not met

Data credit: ChEMBL document CHEMBL5608253
